Assay system: TRPV1 (Rattus norvegicus (Rat))
Assay remarks: Ca2+ fluorescence measurements in cultured rat dorsal root ganglia neurons (capsaicin-induced calcium uptake)
Type: cell-based
Run parameters: DRG neuron; Table 1, formula IA-C; 300 nM against calcium uptake induced by 30 nM capsaicin; rat DRG neurons; read-out: % inhibition at 300 nM
Endpoint label: inhibition at 0.3 µM (%)

| Structure as smiles | Endpoint label | Meas value |
| --- | --- | --- |
| O=C1COc2c(cccc2NC(=O)NCc2ccc(Cl)cc2N2CCCC2)N1 | inhibition at 0.3 µM | 100 |
| CN(C)c1nc(C(F)(F)F)ccc1CNC(=O)Nc1cccc2c1OCC(=O)N2 | inhibition at 0.3 µM | 100 |
| CN(C)CCOc1nc(C(F)(F)F)ccc1CNC(=O)Nc1cccc2c1OCC(=O)N2 | inhibition at 0.3 µM | 40 |
| O=C(NCc1ccncc1)Nc1cccc2[nH]c(=O)[nH]c12 | inhibition at 0.3 µM | 18 |
| O=C(NCc1ccc(C(F)(F)F)cc1N1CCCC1)Nc1cccc2[nH]c(=O)[nH]c12 | inhibition at 0.3 µM | 100 |
| Cc1ccc(CNC(=O)Nc2cccc3c2OCC(=O)N3)cc1 | inhibition at 0.3 µM | 54 |

A: CN(C)c1cc(C(F)(F)F)ccc1CNC(=O)Nc1cccc2c1OCC(=O)N2
B: CN(C)c1cc(C(F)(F)F)ccc1CNC(=O)Nc1cccc2oc(=O)[nH]c12
Incoming: In terms of reported inhibition at 0.3 µM, does A or B have the smaller number? Provide the label of your selected option as the answer.
Outgoing: B
(B: 8%, A: 94%)

* * *

Assay system: TRPV1 (Rattus norvegicus (Rat))
Assay remarks: Ca2+ fluorescence measurements in cultured rat dorsal root ganglia neurons (capsaicin-induced calcium uptake)
Type: cell-based
Run parameters: DRG neuron; Table 1, formula IA-C; 300 nM against calcium uptake induced by 30 nM capsaicin; rat DRG neurons; read-out: % inhibition at 300 nM
Endpoint label: inhibition at 0.3 µM (%)

Solved cases below.
| Structure as smiles | Assay system | Endpoint label | Meas value |
| --- | --- | --- | --- |
| Cc1ccc(CNC(=O)Nc2cccc3c2OCC(=O)N3)c(N2CCCCC2)c1 | TRPV1 (Rattus norvegicus (Rat)) | inhibition at 0.3 µM | 90 |
| O=C(NCc1ccc(C(F)(F)F)cc1N1CCCCC1)Nc1cccc2[nH]c(=O)[nH]c12 | TRPV1 (Rattus norvegicus (Rat)) | inhibition at 0.3 µM | 95 |
| O=C(NCc1ccc(C(F)(F)F)cc1Cl)Nc1cccc2[nH]c(=O)[nH]c12 | TRPV1 (Rattus norvegicus (Rat)) | inhibition at 0.3 µM | 93 |

a: O=C1COc2c(cccc2NC(=O)NCc2ccc(Cl)cc2N2CCCCC2)N1
b: O=C(NCc1ccc(C(F)(F)F)cc1Cl)Nc1cccc2oc(=O)[nH]c12
Incoming: Pick one: a or b . Which has the bigger inhibition at 0.3 µM number? Provide the label of your selected option as the answer.
Outgoing: a

* * *

Assay system: TRPV1 (Rattus norvegicus (Rat), UniProt O35433)
Sequence (O35433 whole entry): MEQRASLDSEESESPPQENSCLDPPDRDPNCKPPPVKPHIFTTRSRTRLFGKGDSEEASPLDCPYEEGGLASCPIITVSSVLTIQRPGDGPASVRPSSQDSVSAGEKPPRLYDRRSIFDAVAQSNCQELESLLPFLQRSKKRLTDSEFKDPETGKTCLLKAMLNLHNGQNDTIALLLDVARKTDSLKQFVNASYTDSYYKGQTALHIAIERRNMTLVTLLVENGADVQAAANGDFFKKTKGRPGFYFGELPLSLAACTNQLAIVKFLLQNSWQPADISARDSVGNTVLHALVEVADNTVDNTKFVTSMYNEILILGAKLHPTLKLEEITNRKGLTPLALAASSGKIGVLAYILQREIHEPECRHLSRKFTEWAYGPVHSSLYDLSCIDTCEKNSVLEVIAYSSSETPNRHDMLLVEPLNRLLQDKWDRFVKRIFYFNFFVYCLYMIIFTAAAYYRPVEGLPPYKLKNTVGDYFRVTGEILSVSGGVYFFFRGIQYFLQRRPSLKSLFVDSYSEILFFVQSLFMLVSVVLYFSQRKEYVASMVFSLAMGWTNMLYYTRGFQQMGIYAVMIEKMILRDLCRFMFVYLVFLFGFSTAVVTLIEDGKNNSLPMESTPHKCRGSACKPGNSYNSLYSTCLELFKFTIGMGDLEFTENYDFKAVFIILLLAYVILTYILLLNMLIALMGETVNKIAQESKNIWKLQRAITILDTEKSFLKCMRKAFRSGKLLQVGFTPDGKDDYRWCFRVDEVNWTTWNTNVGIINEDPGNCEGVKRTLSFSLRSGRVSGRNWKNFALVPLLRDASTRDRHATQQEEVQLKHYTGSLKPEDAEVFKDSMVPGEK
Assay remarks: Ca2+ fluorescence measurements in cultured rat dorsal root ganglia neurons (capsaicin-induced calcium uptake)
Format: cell-based
Run parameters: DRG neuron; Table 2, formula ID-E; 300 nM against calcium uptake induced by 30 nM capsaicin; rat DRG neurons; read-out: % inhibition at 300 nM
Endpoint label: inhibition at 0.3 µM (%)

| Structure as smiles | Assay system | Meas value |
| --- | --- | --- |
| O=C(Cc1ccc(C(F)(F)F)cc1)Nc1cccc2[nH]c(=O)oc12 | TRPV1 (Rattus norvegicus (Rat), UniProt O35433) | 7 |
| O=C(Cc1ccc(C(F)(F)F)cc1)Nc1cccc2c1NC(=O)CO2 | TRPV1 (Rattus norvegicus (Rat), UniProt O35433) | 43 |

P: O=C(Cc1ccc(C(F)(F)F)cc1)Nc1cccc2[nH]c(=O)[nH]c12
Q: O=C(Cc1ccc(C(F)(F)F)cc1)Nc1cccc2oc(=O)[nH]c12
Incoming: Pick one: P or Q . Which has the bigger inhibition at 0.3 µM number? Provide the label of your selected option as the answer.
Outgoing: Q
